# experimental.system: Mcl-1 (Homo sapiens, UniProt Q07820)
# Construct: recombinant GST-Mcl-1
# Sequence (Q07820 whole entry): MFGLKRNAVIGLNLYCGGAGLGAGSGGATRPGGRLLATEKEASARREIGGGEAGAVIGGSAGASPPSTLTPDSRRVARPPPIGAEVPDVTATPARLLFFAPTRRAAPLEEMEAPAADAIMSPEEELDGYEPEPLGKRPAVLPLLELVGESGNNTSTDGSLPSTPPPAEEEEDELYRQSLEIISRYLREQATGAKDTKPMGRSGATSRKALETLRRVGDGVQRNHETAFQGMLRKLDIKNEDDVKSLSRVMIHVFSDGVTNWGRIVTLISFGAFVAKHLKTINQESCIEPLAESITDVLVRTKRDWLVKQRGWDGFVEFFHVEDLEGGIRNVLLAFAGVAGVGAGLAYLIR
# assay.protocol: fluorescence polarization with recombinant GST-Mcl-1; supported by GST pull-down showing disruption of Mcl-1/Bak
measurement.name: Ki

In [3]: df
Out[3]:
                                   compound  measurement_name   result
0  Cc1cc(Cl)ccc1NC(=O)C(=O)C(C(=O)c1ccc2ccccc2c1)C1OC(=O)c2ccccc21 (stereo not shown)                Ki  0.45 µM
